Field: IC50 of virus neutralization (TZM-BL, luciferase). Provide a value for each of the binders that follow.
- test_system: HIV-1 THRO4156.18 envelope (Env) on Env.IMC.LucR virus (HIV-1 clade B)
- assay_overview: cell-based or functional assay
One number for each entry, in µg/mL.

Here is how some binders turned out for IC50 of virus neutralization (TZM-BL, luciferase).
>  <binder>
NglycoSA (antibody, V domains shown) VH: ADLVQSGAVVKKPGDSVRISCEAQGYRFPDYIIHWIRRAPGQGPEWMGWMNPMGGQVNIPWKFQGRVSMTRDTSIETAFLDLRGLKSDDTAVYYCVRDRSNGAGKRFESSNWFLDLWGRGTAVTIQS VL: QSALTQPRSVSASPGQSVTISCTGTHNLVSWCQHQPGRAPKLLIYDFNKRPSGVPDRFSGSGSGGTASLTITGLQDDDDAEYFCWAYEAFGGGTKLTVL

>  <readout_unit>
µg/mL

>  <readout_number>
0.929

$$$$
>  <binder>
CysCV (antibody, V domains shown) VH: ADLVQSGAVVKKPGDSVRISCEAQGYRFPDYIIHWIRRAPGQGPEWMGWMNPMGGQVNIPWKFQGRVSMTRDTSIETAFLDLRGLKSDDTAVYYCVRDRSNGSGKRFESSNWFLDLWGRGTAVTIQS VL: QSALTQPRSVSASPGQSVTISCTGTHNLVSWVQHQPGRAPKLLIYDFNKRPSGVPDRFSGSGSGGTASLTITGLQDDDDAEYFCWAYEAFGGGTKLTVL

>  <readout_unit>
µg/mL

>  <readout_number>
1.4

$$$$
>  <binder>
NVS49-L1A2 (antibody, V domains shown) VH: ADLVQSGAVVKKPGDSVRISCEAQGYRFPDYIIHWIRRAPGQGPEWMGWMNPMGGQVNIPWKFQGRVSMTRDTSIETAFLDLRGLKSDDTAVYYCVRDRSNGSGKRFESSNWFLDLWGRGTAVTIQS VL: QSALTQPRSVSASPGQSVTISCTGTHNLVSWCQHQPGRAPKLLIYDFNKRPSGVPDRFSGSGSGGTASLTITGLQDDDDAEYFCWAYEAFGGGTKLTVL

>  <readout_unit>
µg/mL

>  <readout_number>
1.04

$$$$

Turning now to a further record.
// Input: Germ12_NglycoSA_CysCV (antibody, V domains shown) VH: QVDLVQSGAVVKKPGDSVRVSCEAQGYRFPDYIIHWIRRAPGQGPEWMGWMNPMGGQVNIPWKFQGRVSMTRDTSIETAYMDLRGLRSDDTAVYYCVRDRSNGAGKRFESSNWFLDLWGRGTLVTVSS VL: QSALTQPRSVSGSPGQSVTISCTGTHNLVSWVQHQPGRAPKLLIYDFNKRPSGVPDRFSGSGSGGTASLTISGLQDEDDAEYFCWAYEAFGGGTKLTVL . Output its IC50 of virus neutralization (TZM-BL, luciferase) only.
11.7
